All values here come from ChEMBL document CHEMBL1143439.

- tested system: Ryanodine receptor 1 (Homo sapiens, UniProt P21817)
- Sequence (P21817 whole entry): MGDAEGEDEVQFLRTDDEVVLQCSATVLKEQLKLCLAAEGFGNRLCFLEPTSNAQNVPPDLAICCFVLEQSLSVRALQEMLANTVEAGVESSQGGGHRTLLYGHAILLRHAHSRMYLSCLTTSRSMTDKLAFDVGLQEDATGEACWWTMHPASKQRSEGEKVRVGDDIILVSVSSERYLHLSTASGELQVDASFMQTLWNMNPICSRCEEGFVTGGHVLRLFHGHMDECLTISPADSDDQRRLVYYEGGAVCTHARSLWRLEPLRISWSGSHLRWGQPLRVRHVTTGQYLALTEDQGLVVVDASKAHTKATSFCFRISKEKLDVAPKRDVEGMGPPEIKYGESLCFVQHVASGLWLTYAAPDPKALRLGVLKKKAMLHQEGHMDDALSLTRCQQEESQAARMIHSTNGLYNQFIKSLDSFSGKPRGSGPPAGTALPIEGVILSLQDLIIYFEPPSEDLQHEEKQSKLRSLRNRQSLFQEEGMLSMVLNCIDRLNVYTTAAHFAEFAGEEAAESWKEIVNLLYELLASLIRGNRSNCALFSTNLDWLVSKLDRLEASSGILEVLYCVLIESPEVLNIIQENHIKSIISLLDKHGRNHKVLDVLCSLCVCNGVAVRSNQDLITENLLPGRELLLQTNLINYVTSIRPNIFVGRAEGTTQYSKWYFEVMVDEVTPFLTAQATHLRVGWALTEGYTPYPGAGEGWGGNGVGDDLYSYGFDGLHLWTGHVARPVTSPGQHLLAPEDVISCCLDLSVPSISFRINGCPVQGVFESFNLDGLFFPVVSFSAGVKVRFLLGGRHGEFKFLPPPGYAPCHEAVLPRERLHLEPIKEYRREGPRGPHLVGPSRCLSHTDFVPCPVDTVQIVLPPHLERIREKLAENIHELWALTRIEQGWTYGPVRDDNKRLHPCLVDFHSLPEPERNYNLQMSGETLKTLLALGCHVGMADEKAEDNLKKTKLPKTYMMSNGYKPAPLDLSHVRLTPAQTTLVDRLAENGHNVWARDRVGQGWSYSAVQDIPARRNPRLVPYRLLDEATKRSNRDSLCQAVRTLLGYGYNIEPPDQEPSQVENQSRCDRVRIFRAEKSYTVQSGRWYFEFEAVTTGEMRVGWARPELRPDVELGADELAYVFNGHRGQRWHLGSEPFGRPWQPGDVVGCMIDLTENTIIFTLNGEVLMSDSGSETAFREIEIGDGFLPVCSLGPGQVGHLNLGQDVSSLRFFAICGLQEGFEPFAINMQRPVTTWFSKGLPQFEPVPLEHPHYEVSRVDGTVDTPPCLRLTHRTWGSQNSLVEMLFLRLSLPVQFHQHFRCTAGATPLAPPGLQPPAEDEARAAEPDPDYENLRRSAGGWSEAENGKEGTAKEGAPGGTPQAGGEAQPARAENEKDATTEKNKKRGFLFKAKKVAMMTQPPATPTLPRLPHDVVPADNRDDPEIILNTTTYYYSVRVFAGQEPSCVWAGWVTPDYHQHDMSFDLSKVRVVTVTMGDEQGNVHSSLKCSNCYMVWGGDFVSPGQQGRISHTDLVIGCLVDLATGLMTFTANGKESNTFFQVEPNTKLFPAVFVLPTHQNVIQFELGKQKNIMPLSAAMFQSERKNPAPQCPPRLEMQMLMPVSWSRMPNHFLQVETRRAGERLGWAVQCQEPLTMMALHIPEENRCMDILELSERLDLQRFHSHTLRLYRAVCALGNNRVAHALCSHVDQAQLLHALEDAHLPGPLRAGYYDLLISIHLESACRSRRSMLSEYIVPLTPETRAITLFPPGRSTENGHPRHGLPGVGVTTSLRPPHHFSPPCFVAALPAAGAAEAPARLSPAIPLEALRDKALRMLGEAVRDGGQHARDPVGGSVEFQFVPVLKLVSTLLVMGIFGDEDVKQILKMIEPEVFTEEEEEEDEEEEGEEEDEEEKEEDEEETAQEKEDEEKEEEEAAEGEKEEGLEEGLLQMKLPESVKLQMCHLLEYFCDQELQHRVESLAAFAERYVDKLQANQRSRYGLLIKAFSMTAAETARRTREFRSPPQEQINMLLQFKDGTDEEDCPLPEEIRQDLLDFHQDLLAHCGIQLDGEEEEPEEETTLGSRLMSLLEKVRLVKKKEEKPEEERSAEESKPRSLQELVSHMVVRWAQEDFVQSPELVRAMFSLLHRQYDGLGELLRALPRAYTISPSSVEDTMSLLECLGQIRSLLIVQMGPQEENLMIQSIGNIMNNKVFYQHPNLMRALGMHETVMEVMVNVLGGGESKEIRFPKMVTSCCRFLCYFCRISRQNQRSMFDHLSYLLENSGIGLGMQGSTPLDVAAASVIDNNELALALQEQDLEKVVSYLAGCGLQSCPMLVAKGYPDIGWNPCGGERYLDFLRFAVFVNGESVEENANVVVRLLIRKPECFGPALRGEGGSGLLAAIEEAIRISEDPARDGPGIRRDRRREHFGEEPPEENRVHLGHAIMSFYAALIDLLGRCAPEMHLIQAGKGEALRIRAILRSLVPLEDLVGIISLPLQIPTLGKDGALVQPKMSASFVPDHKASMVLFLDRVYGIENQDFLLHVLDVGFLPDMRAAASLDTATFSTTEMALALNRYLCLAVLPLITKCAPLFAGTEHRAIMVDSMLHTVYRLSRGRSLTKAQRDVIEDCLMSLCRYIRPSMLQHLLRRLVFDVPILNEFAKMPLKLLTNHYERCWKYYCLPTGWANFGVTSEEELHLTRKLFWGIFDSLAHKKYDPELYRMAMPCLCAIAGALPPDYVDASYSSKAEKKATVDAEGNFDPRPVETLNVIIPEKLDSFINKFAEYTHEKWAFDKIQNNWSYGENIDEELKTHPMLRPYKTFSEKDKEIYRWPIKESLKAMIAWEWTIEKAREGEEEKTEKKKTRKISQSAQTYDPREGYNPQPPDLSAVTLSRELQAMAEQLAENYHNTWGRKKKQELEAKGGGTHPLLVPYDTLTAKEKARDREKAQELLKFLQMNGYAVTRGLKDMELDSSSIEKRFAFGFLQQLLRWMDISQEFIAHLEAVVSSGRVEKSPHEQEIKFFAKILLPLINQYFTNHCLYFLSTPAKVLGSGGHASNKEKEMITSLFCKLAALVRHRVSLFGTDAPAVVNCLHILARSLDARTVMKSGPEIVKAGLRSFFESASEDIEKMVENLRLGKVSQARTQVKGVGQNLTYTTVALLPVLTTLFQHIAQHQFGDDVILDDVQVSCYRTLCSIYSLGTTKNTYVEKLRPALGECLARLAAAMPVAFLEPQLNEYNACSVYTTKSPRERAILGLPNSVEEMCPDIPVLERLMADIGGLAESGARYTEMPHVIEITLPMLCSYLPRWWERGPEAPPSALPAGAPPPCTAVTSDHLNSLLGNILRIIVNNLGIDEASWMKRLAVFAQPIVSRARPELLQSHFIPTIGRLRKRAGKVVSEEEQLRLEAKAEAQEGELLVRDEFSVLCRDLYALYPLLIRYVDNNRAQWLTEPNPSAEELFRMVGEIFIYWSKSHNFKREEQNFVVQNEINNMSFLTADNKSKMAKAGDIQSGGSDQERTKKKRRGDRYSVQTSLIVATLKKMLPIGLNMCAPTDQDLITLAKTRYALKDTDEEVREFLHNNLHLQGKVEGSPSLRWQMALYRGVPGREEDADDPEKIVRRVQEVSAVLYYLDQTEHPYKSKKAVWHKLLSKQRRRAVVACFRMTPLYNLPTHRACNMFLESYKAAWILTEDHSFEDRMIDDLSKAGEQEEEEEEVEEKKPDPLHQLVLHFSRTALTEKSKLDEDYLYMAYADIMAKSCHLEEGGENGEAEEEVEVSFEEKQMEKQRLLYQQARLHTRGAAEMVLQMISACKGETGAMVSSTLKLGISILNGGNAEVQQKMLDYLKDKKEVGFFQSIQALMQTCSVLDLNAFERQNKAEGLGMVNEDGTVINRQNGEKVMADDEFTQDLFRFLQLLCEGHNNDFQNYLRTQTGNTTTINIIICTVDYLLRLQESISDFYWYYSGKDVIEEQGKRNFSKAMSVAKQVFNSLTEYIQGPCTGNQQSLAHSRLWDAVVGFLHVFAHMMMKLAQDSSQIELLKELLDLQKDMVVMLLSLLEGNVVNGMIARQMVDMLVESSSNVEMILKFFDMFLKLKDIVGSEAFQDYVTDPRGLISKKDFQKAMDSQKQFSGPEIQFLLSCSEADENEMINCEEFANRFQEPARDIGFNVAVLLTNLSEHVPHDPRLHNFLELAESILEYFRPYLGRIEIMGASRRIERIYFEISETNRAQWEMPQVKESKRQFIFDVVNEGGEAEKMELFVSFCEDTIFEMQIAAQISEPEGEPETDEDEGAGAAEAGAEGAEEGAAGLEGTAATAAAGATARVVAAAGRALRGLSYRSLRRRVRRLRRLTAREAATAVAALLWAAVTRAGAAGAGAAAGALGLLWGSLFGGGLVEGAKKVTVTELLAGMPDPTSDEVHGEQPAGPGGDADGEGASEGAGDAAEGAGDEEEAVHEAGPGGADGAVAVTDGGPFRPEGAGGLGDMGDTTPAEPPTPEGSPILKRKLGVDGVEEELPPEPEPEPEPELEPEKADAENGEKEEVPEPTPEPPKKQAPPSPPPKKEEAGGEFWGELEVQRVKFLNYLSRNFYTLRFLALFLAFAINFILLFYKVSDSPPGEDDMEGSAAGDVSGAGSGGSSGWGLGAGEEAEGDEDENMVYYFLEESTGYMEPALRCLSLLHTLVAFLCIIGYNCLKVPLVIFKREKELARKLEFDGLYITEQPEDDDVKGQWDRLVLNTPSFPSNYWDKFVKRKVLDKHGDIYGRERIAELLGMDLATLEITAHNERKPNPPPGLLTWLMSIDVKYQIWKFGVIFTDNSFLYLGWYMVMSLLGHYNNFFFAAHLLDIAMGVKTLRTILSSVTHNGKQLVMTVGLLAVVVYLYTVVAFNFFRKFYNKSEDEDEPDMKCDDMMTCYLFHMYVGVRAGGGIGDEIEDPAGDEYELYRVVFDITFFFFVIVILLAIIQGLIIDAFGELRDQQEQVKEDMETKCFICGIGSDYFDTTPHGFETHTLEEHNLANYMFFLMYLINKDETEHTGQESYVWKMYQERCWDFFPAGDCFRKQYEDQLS
- assay name: Binding affinity to RYR1 channels by calcium mobilization assay
property: IC50 (µM)
// return numeric value only (unit: µM, not printed)

Task: Could you share what IC50 was measured for "O=C1CCNC(=O)CCc2ccc(c(Br)c2)Oc2cc(cc(Br)c2O)CCN1" , tested on Ryanodine receptor 1 (Homo sapiens, UniProt P21817)?
Result: 6

====

- tested system: Ryanodine receptor 1 (Homo sapiens, UniProt P21817)
- assay name: Binding affinity to RYR1 channels by calcium mobilization assay
property: pEC50
On this scale, pEC50 is minus log10 of a concentration expressed in M (mol/L).

Task: Query: pEC50; subject: "O=C1CCc2ccc(c(Br)c2)Oc2cc(cc(Br)c2O)CCN1"
Result: 4.96
